Target: insulin receptor (IR) on mouse free fat cells (mouse, UniProt P15208 28-1372)
Sequence (P15208 28-1372): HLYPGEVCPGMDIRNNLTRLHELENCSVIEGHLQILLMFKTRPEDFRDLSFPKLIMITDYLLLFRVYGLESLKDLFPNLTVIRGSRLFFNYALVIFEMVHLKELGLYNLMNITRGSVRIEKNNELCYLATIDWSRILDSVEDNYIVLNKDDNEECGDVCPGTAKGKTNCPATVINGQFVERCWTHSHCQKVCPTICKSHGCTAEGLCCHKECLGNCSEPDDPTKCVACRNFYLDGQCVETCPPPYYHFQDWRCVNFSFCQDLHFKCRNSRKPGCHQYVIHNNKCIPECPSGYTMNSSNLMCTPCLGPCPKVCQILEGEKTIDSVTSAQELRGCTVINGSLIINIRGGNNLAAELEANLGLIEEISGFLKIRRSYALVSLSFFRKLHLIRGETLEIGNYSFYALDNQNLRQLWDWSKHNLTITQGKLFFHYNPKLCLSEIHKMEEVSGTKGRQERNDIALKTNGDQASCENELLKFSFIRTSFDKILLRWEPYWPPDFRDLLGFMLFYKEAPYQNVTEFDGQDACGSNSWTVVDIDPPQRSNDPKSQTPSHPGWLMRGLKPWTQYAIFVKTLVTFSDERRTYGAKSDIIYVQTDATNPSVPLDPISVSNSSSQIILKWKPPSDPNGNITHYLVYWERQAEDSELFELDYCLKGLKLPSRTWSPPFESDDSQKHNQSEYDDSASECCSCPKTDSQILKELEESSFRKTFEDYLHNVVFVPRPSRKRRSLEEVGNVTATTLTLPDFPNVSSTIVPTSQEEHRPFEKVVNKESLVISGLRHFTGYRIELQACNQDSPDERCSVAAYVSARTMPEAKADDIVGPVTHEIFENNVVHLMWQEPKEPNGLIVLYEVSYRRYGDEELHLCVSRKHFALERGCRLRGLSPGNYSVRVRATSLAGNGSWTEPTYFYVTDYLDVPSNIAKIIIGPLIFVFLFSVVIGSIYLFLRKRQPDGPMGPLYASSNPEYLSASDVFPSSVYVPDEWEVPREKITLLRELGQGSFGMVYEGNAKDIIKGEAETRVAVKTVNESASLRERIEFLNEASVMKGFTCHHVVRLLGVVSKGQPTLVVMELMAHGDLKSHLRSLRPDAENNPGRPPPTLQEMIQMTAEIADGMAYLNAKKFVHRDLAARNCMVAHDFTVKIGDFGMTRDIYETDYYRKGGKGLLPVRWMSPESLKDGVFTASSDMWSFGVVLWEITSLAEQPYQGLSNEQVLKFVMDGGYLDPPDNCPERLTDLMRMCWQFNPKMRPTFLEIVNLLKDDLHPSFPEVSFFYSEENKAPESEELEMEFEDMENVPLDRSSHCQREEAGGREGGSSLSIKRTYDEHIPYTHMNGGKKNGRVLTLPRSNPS
Experiment: cell-based or functional assay
READOUT LABEL: FFC Pot. (nM)

BINDER	READOUT LABEL	EXPERIMENTAL VALUE
521 (recombinant dimer with tags at both ends (FLAG, E-Tag); also called RP9-6aa-RP9) peptide: MADYKDDDDKGSLDESFYDWFERQLGKKGGSGGSGSLDESFYDWFERQLGKKAAAGAPVPYPDPLEPRPG	FFC Pot.	3
539 (recombinant dimer with tags at both ends; also called D8-6aa-RP9) peptide: MADYKDDDDKWLDQEWAWVQCEVYGRGCPSGGSGGSGSLDESFYDWFERQLGKKAAAGAPVPYPDPLEPRPG	FFC Pot.	10
535 (peptide) peptide: MADYKDDDDKGSLDESFYDWFERQLGKKGGSGGSGGSGGSGSLDESFYDWFERQLGKKAAAGAPVPYPDPLEPRPG	FFC Pot.	2
538 (recombinant dimer with tags at both ends; also called RP9-12aa-D8) peptide: MADYKDDDDKGSLDESFYDWFERQLGKKGGSGGSGGSGGSWLDQEWAWVQCEVYGRGCPSAAAGAPVPYPDPLEPRPG	FFC Pot.	10
537 (recombinant dimer with tags at both ends; also called RP9-6aa-D8) peptide: MADYKDDDDKGSLDESFYDWFERQLGKKGGSGGSWLDQEWAWVQCEVYGRGCPSAAAGAPVPYPDPLEPRPG	FFC Pot.	10
